assay: Quantum yield of solubilized protein (Cy5 reference); type: physicochemical; settings: excitation at 600 nm
Think of 10 as a floor: if Quantum yield relative to Arch D95N stands on it or above, it is TRUE; beneath it, FALSE.

QuasAr1: Archaerhodopsin 3 variant with mutations P60S, T80S, D95H, D106H, F161V; genetically encoded voltage indicator (protein) MDPIALQAGYDLLGDGRPETLWLGIGTLLMLIGTFYFLVRGWGVTDKDAREYYAVTILVSGIASAAYLSMFFGIGLTEVSVGGEMLDIYYARYAHWLFTTPLLLLHLALLAKVDRVTIGTLVGVDALMIVTGLIGALSHTAIARYSWWLFSTICMIVVLYVLATSLRSAAKERGPEVASTFNTLTALVLVLWTAYPILWIIGTEGAGVVGLGIETLLFMVLDVTAKVGFGFILLRSRAILGDTEAPEPSAGADVSAAD
TRUE
Arch D95H/D106H: Arch double mutant D95H, D106H (protein) MDPIALQAGYDLLGDGRPETLWLGIGTLLMLIGTFYFLVRGWGVTDKDAREYYAVTILVPGIASAAYLSMFFGIGLTEVTVGGEMLDIYYARYAHWLFTTPLLLLHLALLAKVDRVTIGTLVGVDALMIVTGLIGALSHTAIARYSWWLFSTICMIVVLYFLATSLRSAAKERGPEVASTFNTLTALVLVLWTAYPILWIIGTEGAGVVGLGIETLLFMVLDVTAKVGFGFILLRSRAILGDTEAPEPSAGADVSAAD
FALSE
Arch D95N: Archaerhodopsin 3 D95N mutant, non-pumping voltage indicator of US 2013/0224756 (protein) MDPIALQAGYDLLGDGRPETLWLGIGTLLMLIGTFYFLVRGWGVTDKDAREYYAVTILVPGIASAAYLSMFFGIGLTEVTVGGEMLDIYYARYANWLFTTPLLLLDLALLAKVDRVTIGTLVGVDALMIVTGLIGALSHTAIARYSWWLFSTICMIVVLYFLATSLRSAAKERGPEVASTFNTLTALVLVLWTAYPILWIIGTEGAGVVGLGIETLLFMVLDVTAKVGFGFILLRSRAILGDTEAPEPSAGADVSAAD
FALSE
Arch D95H/D106H/F161V: Arch triple mutant D95H, D106H, F161V (protein) MDPIALQAGYDLLGDGRPETLWLGIGTLLMLIGTFYFLVRGWGVTDKDAREYYAVTILVPGIASAAYLSMFFGIGLTEVTVGGEMLDIYYARYAHWLFTTPLLLLHLALLAKVDRVTIGTLVGVDALMIVTGLIGALSHTAIARYSWWLFSTICMIVVLYVLATSLRSAAKERGPEVASTFNTLTALVLVLWTAYPILWIIGTEGAGVVGLGIETLLFMVLDVTAKVGFGFILLRSRAILGDTEAPEPSAGADVSAAD
TRUE

Just for reference, patent US9518103B2 is where these values come from.
